Here, each record is paired with measured Proliferation assay PBMC TD50 data.
# System: Peripheral blood mononuclear cells (PBMC)
# Assay type: cell-based
# assayContext: human, 7 days
Give a bare numeral; the unit µM is implied.

Example cases with answers are listed next.
                                   molecule  unitsymbol  reportedvalue
0  C[C@@H](NC(=O)c1nc(-c2cc(N)ccn2)nc(O)c1O)C1CCCCC1 [Compound 48]          µM            2.6
1  CC(OC(=O)c1nc(-c2ccccn2)nc(O)c1O)C1CCCCC1 (centres unmarked) [Compound 17]          µM            5.5
2  CC(NC(=O)c1nc(-c2ccccn2)nc(O)c1O)C1CCCC1 (centres unmarked) [Compound 65]          µM            3.1
3  O=C(NC1(C2CCCCC2)CC1)c1nc(-c2ccccn2)nc(O)c1O [Compound 24]          µM            2.6

Lab note: next molecule to report on.
Proliferation assay PBMC TD50 in this record for C[C@@H](NC(=O)c1nc(-c2ccc3ccccc3n2)nc(O)c1O)C1CCCCC1 [Compound 22] : 8.05

---

# systemName: HIV-1 integrase (Human immunodeficiency virus type 1 group M subtype B, UniProt P04585)
# Construct: Full-length recombinant HIV-1 integrase protein was loaded onto the DS DNA substrate
# measurementProtocol: HIV-integrase assay (strand transfer kit)
# Method: The integrase assay was performed using the HIV-1 integrase assay kit (Xpress Bio Co, catalog number EZ-1700, Thurmont, MD) according to the manufacturer's instructions. […] The products of the reaction were detected colorimetrically using an HRP-labeled antibody directed against TS 3'-end modification. […] The absorbance at 450 nm was recorded with an iMark™ Microplate Absorbance Reader (Bio-Rad Laboratories). […]
readoutLabel: IC50 (µM)
# unit: µM | format: bare number

The cases that follow already have their IC50 on record.
>>> df
                                   compound  readoutlabel  reportedvalue
0  CCNCc1ccc(-c2nc(O)c(O)c(C(=O)N[C@H](C)C3CCCCC3)n2)nc1 [Compound 60]          IC50             10
1  COc1ccnc(-c2nc(O)c(O)c(C(=O)N[C@H](C)C3CCCCC3)n2)c1 [Compound 28]          IC50             84

Measured IC50, C[C@@H](NC(=O)c1nc(-c2cc(Cl)ccn2)nc(O)c1O)C1CCCCC1 [Compound 26] : 150

---

# Test system: Peripheral blood mononuclear cells (PBMC)
# Format: cell-based
# assayContext: human, 7 days
readoutLabel: Proliferation assay PBMC TD50 (nM)
Give your result in nM as a bare value.

In the examples that follow, each entry is paired with its recorded Proliferation assay PBMC TD50.
In [3]: df
Out[3]:
                                   compound                                systemname  unitsymbol  reportedvalue
0  CCNS(=O)(=O)c1ccc(-c2nc(O)c(O)c(C(=O)N[C@H](C)C3CCCCC3)n2)nc1 [Compound 89]  Peripheral blood mononuclear cells (PBMC)          nM           3290
1  Cc1cccnc1-c1nc(O)c(O)c(C(=O)NCC2CCCCC2)n1 [Compound 11]  Peripheral blood mononuclear cells (PBMC)          nM           8700
2  C[C@@H](NC(=O)c1nc(-c2cc(Cl)ccn2)nc(O)c1O)C1CCCCC1 [Compound 26]  Peripheral blood mononuclear cells (PBMC)          nM           2490
3  C[C@H](NC(=O)c1nc(-c2cc(C(F)(F)F)ccn2)nc(O)c1O)C1CCCCC1 [Compound 52]  Peripheral blood mononuclear cells (PBMC)          nM           1200
4  C[C@@H](NC(=O)c1nc(-c2cc(OCc3ccccc3)ccn2)nc(O)c1O)C1CCCCC1 [Compound 35]  Peripheral blood mononuclear cells (PBMC)          nM            670

The compound identified as C[C@H](NC(=O)c1nc(-c2ccc(C(=O)OCc3ccccc3)cn2)nc(O)c1O)C1CCCCC1 [Compound 70] registered its Proliferation assay PBMC TD50 at 500

Looking up C[C@H](NC(=O)c1nc(-c2ccccn2)nc(O)c1O)C1CCCCC1 [Compound 38] , I found its Proliferation assay PBMC TD50 recorded as 2450

Consider Cc1ccnc(-c2nc(O)c(O)c(C(=O)N[C@@H](C)C3CCCCC3)n2)c1 [Compound 79] . Its measured Proliferation assay PBMC TD50 is 2300

---

# systemName: NC(11-55) (Human immunodeficiency virus type 1, UniProt P12493)
# measurementProtocol: NC inhibition assay (NC-induced cTAR DNA destabilization, fluorescence)
# Format: biochemical, HIV-1
Reported IC50 is given for each of the following compounds.
Give just the numeric value; µM need not be written.

                                   compound                                systemname  reportedvalue
0  CCNCc1ccc(-c2nc(O)c(O)c(C(=O)N[C@H](C)C3CCCCC3)n2)nc1 [Compound 60]  NC(11-55) (Human immunodeficiency virus type 1, UniProt P12493)            3.5

Recorded result, C[C@@H](NC(=O)c1nc(-c2cc(C(F)(F)F)ccn2)nc(O)c1O)C1CCCCC1 [Compound 27] , IC50: 12.5

response.value for C[C@H](NC(=O)c1nc(-c2cc(Cl)ccn2)nc(O)c1O)C1CCCCC1 [Compound 78] (field: IC50) = 18

GET /value?item= C[C@H](NC(=O)c1nc(-c2cc(C(F)(F)F)ccn2)nc(O)c1O)C1CCCCC1 [Compound 52] &field=IC50 returns 26.5

---

# Test system: Peripheral blood mononuclear cells (PBMC)
# Type: cell-based
# assayContext: human, 7 days
Form field: Proliferation assay PBMC TD50 (one value per entry).
Just the number in nM, nothing appended.

>>> df
                             chemicalstring                                systemname  reportedvalue
0  COc1ccnc(-c2nc(O)c(O)c(C(=O)N[C@H](C)C3CCCCC3)n2)c1  Peripheral blood mononuclear cells (PBMC)           2700
1  Cc1cccnc1-c1nc(O)c(O)c(C(=O)N[C@H](C)C2CCCCC2)n1  Peripheral blood mononuclear cells (PBMC)           8900
2  C[C@H](NC(=O)c1nc(-c2nccc3ccccc23)nc(O)c1O)C1CCCCC1  Peripheral blood mononuclear cells (PBMC)           2000

# COc1cc(-c2nc(O)c(O)c(C(=O)N[C@H](C)C3CCCCC3)n2)nc2ccccc12 with Peripheral blood mononuclear cells (PBMC): Proliferation assay PBMC TD50 is 2660

Log: Peripheral blood mononuclear cells (PBMC), compound C[C@@H](NC(=O)c1nc(-c2cc(CCNCc3cccn3C)ccn2)nc(O)c1O)C1CCCCC1 , Proliferation assay PBMC TD50 = 1090

Tested system Peripheral blood mononuclear cells (PBMC); Proliferation assay PBMC TD50 recorded for C[C@H](NC(=O)c1nc(-c2cc3ccccc3cn2)nc(O)c1O)C1CCCCC1 was 2270

The reported Proliferation assay PBMC TD50 value, Peripheral blood mononuclear cells (PBMC), for O=C(OC1CCCCC1)c1nc(-c2ccccn2)nc(O)c1O reads 16300

Short answer on Peripheral blood mononuclear cells (PBMC) for C[C@@H](NC(=O)c1nc(-c2ccccn2)nc(O)c1O)C1CCCCC1 , Proliferation assay PBMC TD50: 3000

---

# systemName: NC(11-55) (Human immunodeficiency virus type 1, UniProt P12493)
# measurementProtocol: NC inhibition assay (NC-induced cTAR DNA destabilization, fluorescence)
# Assay type: biochemical, HIV-1
readoutLabel: pIC50
Give only the number. pIC50 is defined as minus log10 of concentration in molar units.

As a guide, the following entries are already answered.
>>> print(df.to_string())
                                   compound                                systemname  reportedvalue
0  C[C@@H](NC(=O)c1nc(-c2ccc(C(F)(F)F)cn2)nc(O)c1O)C1CCCCC1  NC(11-55) (Human immunodeficiency virus type 1, UniProt P12493)           4.65
1  C[C@@H](NC(=O)c1nc(-c2ccccn2)nc(O)c1O)C1CCCCC1  NC(11-55) (Human immunodeficiency virus type 1, UniProt P12493)           4.37
2  O=C(OCCCC1CCCCC1)c1nc(-c2ccccn2)nc(O)c1O  NC(11-55) (Human immunodeficiency virus type 1, UniProt P12493)           4.56
3  CN1CCCC(CNC(=O)c2nc(-c3ccccn3)nc(O)c2O)C1 (centres unmarked)  NC(11-55) (Human immunodeficiency virus type 1, UniProt P12493)           3.47
4  COc1ccnc(-c2nc(O)c(O)c(C(=O)NC3CCC(C)(C)CC3)n2)c1  NC(11-55) (Human immunodeficiency virus type 1, UniProt P12493)           4.63

Looking up COc1ccc(-c2nc(O)c(O)c(C(=O)N[C@H](C)C3CCCCC3)n2)nc1 , I see its pIC50 listed as 4.35

Lab note: C[C@@H](NC(=O)c1nc(-c2ccc3ccccc3n2)nc(O)c1O)C1CCCCC1 gave pIC50 of 5.52

Looking up CC(OC(=O)c1nc(-c2ccccn2)nc(O)c1O)C1CCCCC1 (centres unmarked) , I see its pIC50 listed as 4.05

// pIC50 lookup, compound = C[C@@H](NC(=O)c1nc(-c2ccc(CNCc3ccccc3)cn2)nc(O)c1O)C1CCCCC1 , result: 5.12

Briefly, pIC50 measured for C[C@@H](NC(=O)c1nc(-c2cc(C(=O)OCc3ccccc3)ccn2)nc(O)c1O)C1CCCCC1 : 5.00
